For each of the molecules below, state its IC50.
# protocol: RORgamma Gal4 Reporter Gene Assay (REN): Cells were incubated for additional 16 h before renilla (REN) luciferase activities were measured sequentially in the same cell extract using a Dual-Light-Luciferase-Assay system (Dyer et al., Anal. Biochem. 2000, 282:158). All experiments were done at least in triplicates.
State just the number; it will be interpreted in nM.

Give the measured IC50 for `O=CO[C@H]1C[C@H](NC(=O)c2nc(CC3CCCCC3)c(-c3ccc(OCC(F)(F)F)c4ccccc34)s2)C1` 631

// fetch IC50 given entry `CC(C)(C)NS(=O)(=O)c1ccc(-c2sc(C(=O)NCC3(O)CCOCC3)nc2CC2CCCCC2)cc1C(C)(C)O` 20

Let me know recorded IC50 for `C[C@H](NS(=O)(=O)c1ccc(-c2sc(C(=O)N3CC4(C3)CS(=O)(=O)C4)nc2CC2CC2)c2ccccc12)C(F)(F)F` , thanks. 6.31

----------
# protocol: RORgamma Gal4 Reporter Gene Assay (REN): Cells were incubated for additional 16 h before renilla (REN) luciferase activities were measured sequentially in the same cell extract using a Dual-Light-Luciferase-Assay system (Dyer et al., Anal. Biochem. 2000, 282:158). All experiments were done at least in triplicates.
endpoint: IC50 (nM)
Please state the figure in nM; there is no need to write the unit.

Using the record for `CC(C)(O)CNC(=O)c1nc(CC2CCCCC2)c(-c2ccc(S(=O)(=O)NC(C)(C)C)c(Cl)c2Cl)o1` , state its measured IC50. 31.6

Tell me its IC50 given `CCCc1nc(C(=O)NCC(C)(C)O)sc1-c1ccc(S(=O)(=O)N[C@@H](C)C(F)(F)F)c2ccccc12` as the entry. 12.6

Consider the compound `CC(C)(O)CNC(=O)c1nc(CC2CCCCC2)c(-c2ncc(S(=O)(=O)NC(C)(C)C)c3ccccc23)s1` . State its measured IC50. 20

Write down IC50 measured for item `CC(C)(C)c1cc(-c2cc(C(N)=O)ccc2CC2CCCCC2)cc(C(C)(C)C)c1` 501

Complete the entry with IC50 for `COc1ccc(-c2sc(C(=O)N[C@H]3C[C@H](OC=O)C3)nc2CC2CCCCC2)c2ccccc12` 251

Look up and report measured IC50 for this entry: `CC(C)(C)NS(=O)(=O)c1ccc(-c2oc(C(=O)NC34CCC(C(=O)O)(CC3)CC4)nc2CC2CCCCC2)c2ccccc12` 12.6

For the compound `CC(C)(C)NS(=O)(=O)c1ccc(-c2sc(C(=O)N[C@H]3C[C@H](C(=O)O)C3)nc2C2CCCCC2)c2ccccc12` , report IC50. 10

Could you please provide reported IC50 for `CC(C)(C)NS(=O)(=O)c1ccc(-c2sc(C(=O)NCCN3CCOCC3)nc2CC2CCCCC2)cc1C(C)(C)O` ? Thanks! 200

----------
Provide the recorded log10 of IC50 for the entries that follow.
# protocol: RORgamma Gal4 Reporter Gene Assay (REN): Cells were incubated for additional 16 h before renilla (REN) luciferase activities were measured sequentially in the same cell extract using a Dual-Light-Luciferase-Assay system (Dyer et al., Anal. Biochem. 2000, 282:158). All experiments were done at least in triplicates.
Use the decimal logarithm of IC50 (nM).

Please indicate log10 of IC50 recorded for `CC(C)(O)c1cc(-c2sc(C(=O)N[C@H]3C[C@@H](C(=O)O)C3)nc2CC2CCCCC2)cc(C2(C)CC2)c1` 1.80

Report measured log10 of IC50; entry is `CC(C)(C)NS(=O)(=O)c1ccc(-c2sc(C(=O)NC3CCS(=O)(=O)CC3)nc2CC2CCCCC2)c2ccncc12` 1.10

Supply recorded log10 of IC50 for `CC(C)(C)NS(=O)(=O)c1ccc(-c2sc(C(=O)N[C@H]3C[C@H](C(=O)O)C3)nc2CC2CCCCC2)c2c1CCC2` here. 0.50

Identify the reported log10 of IC50 for the following entry. `CCC(C)(C)NS(=O)(=O)c1ccc(-c2sc(C(=O)NCC(C)(C)O)nc2C(=O)N2CCC(C)CC2)c(Cl)c1C` 0.50

Provide one value: measured log10 of IC50 of `CC1(NC(=O)c2cc(-c3sc(C(=O)NC4CCS(=O)(=O)CC4)nc3CC3CCCCC3)cc(C3(C)CC3)c2)COC1` 1.10

Please list log10 of IC50 recorded for the molecule `CCOC(=O)c1nc(Cc2ccccc2)c(-c2ccc(S(=O)(=O)NC(C)(C)C)c3ccccc23)s1` 1.00

Please report log10 of IC50 for the following molecule: `CC(C)(C)NS(=O)(=O)c1ccc(-c2oc(C(=O)NC3CCS(=O)(=O)CC3)nc2CC2CCCCC2)c(Cl)c1Cl` 0.80

Name the recorded log10 of IC50 of the molecule listed here: `CC(C)(O)c1cc(-c2sc(C(=O)N[C@H]3C[C@H](C(=O)O)C3)nc2CC2CCCCC2)cc(C2(C)CC2)c1` 1.90

Supply log10 of IC50 value. Item: `CC(C)(C)NS(=O)(=O)c1ccc(-c2sc(C(=O)NC3CCOCC3)nc2CC2CCCCC2)cc1C(F)(F)F` 0.70

Indicate its recorded log10 of IC50; the molecule in question is `CC(C)(C)NS(=O)(=O)c1ccc(-c2sc(C(=O)NCCC(C)(C)C(=O)O)nc2CC2CCCCC2)c(Cl)c1Cl` 0.80

Recall and state the measured log10 of IC50 for `C[C@H](NS(=O)(=O)c1ccc(-c2sc(C(=O)NCC(C)(C)O)nc2CC2CCC2)c(Cl)c1)C(F)(F)F` . 1.10

Tell us which log10 of IC50 value is on record for COC(c1nc(C(=O)NC2CCOCC2)sc1-c1cc(C(C)(C)C)cc(C2(C)CC2)c1)C1CCCCC1 (configuration not stated) 1.90

Fill in log10 of IC50 for record `CC(C)(C)NS(=O)(=O)c1ccc(-c2sc(C(=O)NC3CSC3)nc2CC2CCCCC2)c(Cl)c1Cl` 0.30

Look up and report measured log10 of IC50 for this entry: `CC(C)(C)c1cc(-c2sc(C(=O)N[C@H]3C[C@H](C(=O)O)C3)nc2CC2CCCCC2)cc(C(C)(F)F)c1` 1.60

Fill in log10 of IC50 for record CC(C)(C)c1cc(-c2sc(C(=O)NC3CC(OC=O)C3)nc2CC2CCCCC2)nc(C(C)(C)C)n1 (configuration not stated) 2.10

Given the molecule `CC(C)(C)c1cc(-c2sc(C(=O)NC3CCC3)[n+]([O-])c2CC2CCCCC2)cc(C2(C)CC2)c1` , write its reported log10 of IC50. 1.40

Specify reported log10 of IC50 for the molecule shown: `CC(C)(C)NS(=O)(=O)c1ccc(-c2sc(C(=O)NC3CCC3)nc2CC2CCCCC2)c(OC(F)F)c1Cl` 0.70

Tell us which log10 of IC50 value is on record for `O=C(NC1CCS(=O)(=O)CC1)c1nc(CC2CCCCC2)c(-c2ccc(C3(O)CCC3)c3ccccc23)s1` 2.80

Recall and state the measured log10 of IC50 for `CC1CCN(C(=O)c2nc(C(=O)N3CC4(CCS(=O)(=O)CC4)C3)sc2-c2ccc(S(=O)(=O)NC(C)(C)C)c3ccccc23)CC1` . 2.40

Input `CC(C)(C)NS(=O)(=O)c1ccc(-c2sc(C(=O)NC3CSC3)nc2CC2CCCCC2)c2ccccc12` , output reported log10 of IC50. 0.30

Could you please provide reported log10 of IC50 for `CC(C)(C)c1cc(-c2ccc(C(N)=O)cc2CC2CCCCC2)cc(C(C)(C)C)c1` ? Thanks! 2.80

Name the recorded log10 of IC50 of the molecule listed here: `CC(C)(C)NS(=O)(=O)c1ccc(-c2oc(C(=O)NC3CCOCC3)nc2CC2CCCCC2)c2ccccc12` 1.10

Recall and state the measured log10 of IC50 for `C[C@H](NC(=O)c1cc(-c2sc(C(=O)NCC(C)(C)c3nnn[nH]3)nc2CC2CCCCC2)cc(C2(C)CC2)c1)C(F)(F)F` . 1.50

Look up log10 of IC50 of `CC(C)(CNC(=O)c1nc(CC2CCCCC2)c(-c2cc(C(C)(C)C)cc(C3(C)CC3)c2)o1)C(=O)O` and report it. 2.40

Input `CCC1CCN(C(=O)c2nc(C(=O)NCC(C)(C)O)sc2-c2ccc(S(=O)(=O)NC(C)(C)C)c3ccccc23)CC1` , output reported log10 of IC50. 1.50

Return the recorded log10 of IC50 value; entry: `CNS(=O)(=O)c1ccc(-c2sc(C(=O)N3CC4(CCS(=O)(=O)CC4)C3)nc2CC2CCCCC2)c2ccccc12` 2.40

Answer with the recorded log10 of IC50 for the molecule listed here: `CC(C)(C)c1cc(-c2oc(C(N)=O)nc2CC2CCCCC2)cc(C(C)(C)C)c1` 3.20

State, in one line, measured log10 of IC50 of `CC(C)(CCNC(=O)c1nc(CC2CCCCC2)c(-c2cc(C(C)(C)C)cc(C3(C)CC3)c2)s1)C(=O)O` 2.00

Determine from records and report log10 of IC50 for `CC(C)(C)c1cc(-c2oc(C(=O)NC3CCOCC3)nc2CC2CCCCC2)cc(C2(C)CC2)c1` 2.10

Give a short answer stating reported log10 of IC50 for `CC(C)(C)NS(=O)(=O)c1ccc(-c2oc(C(=O)NC3CCOCC3)nc2CC2CCCCC2)cc1C(C)(C)C` . 2.70

Report log10 of IC50, nothing else, for this molecule: `CC(C)(C)NS(=O)(=O)c1ccc(-c2sc(C(=O)NC3CCS(=O)(=O)CC3)nc2CC2CC2)c(Cl)c1Cl` 1.50

From: ChEMBL document CHEMBL5727000
